Recorded values, source the supplement of paper PMC10567573.

B1: MIA2 (parent)
chain: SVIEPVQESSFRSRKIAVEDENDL

variants of: B1; experiment: protein stability index of a GFP-peptide fusion (GPS, HEK-293T) (PSI 1-6); higher = more stable; conditions: c terminus: a fixed tail appended;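 also: lentivirally expressed fusions sorted by FACS into six bins by GFP to DsRed ratio, PSI derived from sequencing read proportions per bin multiplied by bin number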
Label scheme for protein stability index: lower than 5 is -1, 5 and above is 1.

For orientation, consider the following solved cases.
{"Var": "L24V", "Assigned Category": 1}
{"Var": "K15G", "Assigned Category": -1}
{"Var": "E21F", "Assigned Category": -1}
{"Var": "A17K", "Assigned Category": 1}
{"Var": "D20W", "Assigned Category": -1}

Reported protein stability index reaches at least 5 for V18E ? 1

Reported protein stability index reaches at least 5 for I3L ? 1

Reported protein stability index reaches at least 5 for R12A ? 1

Reported protein stability index reaches at least 5 for R12D ? 1

Reported protein stability index reaches at least 5 for E21G ? 1

Reported protein stability index reaches at least 5 for K15E ? 1

Reported protein stability index reaches at least 5 for E4L ? -1

Reported protein stability index reaches at least 5 for I3Y ? 1
